- Tested System: AQ STING (G230A-R293Q) (Homo sapiens, UniProt Q86WV6, G230A/H232R/R293Q)
- Construct: truncated human WT STING or AQ STING (amino acid residues 140-343); 8xHis (N, cleaved yes); SUMO (N, cleaved yes); made in house; host or cells: E. coli Rosetta-gami B (DE3)
- Sequence (Q86WV6 140-343 G230A/H232R/R293Q): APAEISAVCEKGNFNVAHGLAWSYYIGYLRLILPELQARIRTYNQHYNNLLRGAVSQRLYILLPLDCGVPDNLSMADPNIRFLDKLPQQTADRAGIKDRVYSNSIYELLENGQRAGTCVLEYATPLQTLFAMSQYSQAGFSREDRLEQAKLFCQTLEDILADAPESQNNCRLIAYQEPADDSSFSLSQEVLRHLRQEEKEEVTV
- Method: Differential Scanning Fluorimetry with AQ STING
- Type: binding
- Condition: thermal shift vs STING apoprotein; 150 μM CDN; 0.1 mg/ml truncated human AQ STING; SYPRO Orange; read-out: DSF ΔTm (° C.) AQ STING
Measurement Kind: ΔTm at 150 µM (°C)
One number for each entry, in °C.

Take a look at these entries with their results.
CNc1ncnc2c1ncn2[C@@H]1O[C@@H]2COP(=O)(O)O[C@@H]3[C@H](O)[C@@H](OCP(=O)(O)O[C@H]2[C@H]1O)O[C@H]3n1cnc2c(=O)[nH]c(N)nc21 [Compound 49] ... 9.3
Nc1nc2c(ncn2[C@@H]2O[C@@H]3OCP(=O)(O)O[C@H]4C[C@H](n5cnc6c(N)ncnc65)O[C@@H]4COP(=O)(O)O[C@@H]2[C@@H]3O)c(=O)[nH]1 [Compound 55] ... 22.9
Nc1nc2c(ncn2[C@@H]2O[C@@H]3OCP(=O)(O)O[C@H]4[C@H](O)[C@H](n5cnc6c(N)nc(F)nc65)O[C@@H]4COP(=O)(O)O[C@@H]2[C@@H]3O)c(=O)[nH]1 [Compound 52] ... 20.1
NC(=O)c1ncn([C@@H]2O[C@@H]3COP(=O)(O)O[C@@H]4[C@H](O)[C@@H](OCP(=O)(O)O[C@H]3[C@H]2O)O[C@H]4n2cnc3c(=O)[nH]c(N)nc32)c1N [Compound 58] ... 11.9

Then there is this compound:
**Q:** For the compound CSc1ncnc2c1ncn2[C@@H]1O[C@@H]2COP(=O)(O)O[C@@H]3[C@H](O)[C@@H](OCP(=O)(O)O[C@H]2[C@H]1O)O[C@H]3n1cnc2c(=O)[nH]c(N)nc21 [Compound 51] , what ΔTm at 150 µM is on record?
**A:** 15.9

----------
- Tested System: AQ STING (G230A-R293Q) (Homo sapiens, UniProt Q86WV6, G230A/H232R/R293Q)
- Construct: truncated human WT STING or AQ STING (amino acid residues 140-343); 8xHis (N, cleaved yes); SUMO (N, cleaved yes); made in house; host or cells: E. coli Rosetta-gami B (DE3)
- Method: Differential Scanning Fluorimetry with AQ STING
- Assay type: binding
- Condition: thermal shift vs STING apoprotein; 150 μM CDN; 0.1 mg/ml truncated human AQ STING; SYPRO Orange; read-out: DSF ΔTm (° C.) AQ STING
Measurement Kind: ΔTm at 150 µM (°C)
One number for each entry, in °C.

Nc1ncnc2c1ncn2[C@@H]1O[C@@H]2OCP(=O)(O)O[C@@H]3[C@H](O)[C@@H](COP(=O)(O)O[C@H]2[C@H]1O)O[C@H]3n1cnc2c(=O)[nH]cnc21 ... 16.5
Nc1nc2c(nnn2[C@@H]2O[C@@H]3OCP(=O)(O)O[C@H]4[C@@H](O)[C@H](n5cnc6c(N)ncnc65)O[C@@H]4COP(=O)(O)O[C@@H]2[C@@H]3O)c(=O)[nH]1 ... 22.2

--- query ---
**Q:** Look up ΔTm at 150 µM: Nc1nc2c(nnn2[C@@H]2O[C@@H]3OCP(=O)(O)OC4C(F)[C@H](n5cnc6c(N)ncnc65)O[C@@H]4COP(=O)(O)OC2C3O)c(=O)[nH]1 (stereo partly drawn)
**A:** 26.4

----------
- Tested System: WT STING (Homo sapiens, UniProt Q86WV6, H232R)
- Method: Digitonin assay using 293T wtSTING-FL reporter cells
- Condition: 293T wtSTING-FL cells; 30 minutes in Digitonin buffer, then 5 hours; ISRE firefly luciferase reporter; 8-point dose-response curve; read-out: Digitonin assay EC50 (μmol · l^−1) WT STING
- Sequence (Q86WV6 whole entry H232R): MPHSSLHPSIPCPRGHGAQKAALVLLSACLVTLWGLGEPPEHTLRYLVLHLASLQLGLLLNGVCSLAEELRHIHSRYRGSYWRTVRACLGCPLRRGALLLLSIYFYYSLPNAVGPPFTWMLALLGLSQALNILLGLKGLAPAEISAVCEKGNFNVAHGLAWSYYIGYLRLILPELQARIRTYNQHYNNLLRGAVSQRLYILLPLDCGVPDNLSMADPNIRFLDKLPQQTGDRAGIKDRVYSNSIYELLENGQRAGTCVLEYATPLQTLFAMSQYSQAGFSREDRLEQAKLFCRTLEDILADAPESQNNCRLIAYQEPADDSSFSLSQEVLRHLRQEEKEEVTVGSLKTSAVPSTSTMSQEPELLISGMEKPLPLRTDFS
Measurement Kind: log10 of EC50 (log10 of the value in nM)
Reminder: these figures are log10 of reported EC50, in nM before transformation.

Below, 4 compounds whose answers are already recorded.
Nc1nc2c(ncn2[C@@H]2O[C@@H]3OCP(=O)(O)O[C@H]4[C@@H](O)[C@H](n5ccc6c(N)ncnc65)O[C@@H]4COP(=O)(O)O[C@@H]2[C@@H]3O)c(=O)[nH]1 ... 2.00
Nc1ncnc2c1ncn2[C@@H]1O[C@@H]2COP(=O)(O)O[C@H]3[C@@H](O)[C@H](n4cnc5c(N)ncnc54)O[C@@H]3COP(=O)(O)O[C@H]2[C@H]1O [3′3′c-di-AMP, reference compound] ... 2.48
Nc1nc2c(nnn2[C@@H]2O[C@@H]3OCP(=O)(O)O[C@H]4[C@H](O)[C@H](n5cnc6c(N)ncnc65)O[C@@H]4COP(=O)(O)O[C@@H]2[C@@H]3O)c(=O)[nH]1 ... 1.70
Nc1ncnc2c1ncn2[C@@H]1O[C@@H]2COP(=O)(O)O[C@@H]3[C@H](O)[C@@H](COCP(=O)(O)O[C@H]2[C@H]1F)O[C@H]3n1cnc2c(N)ncnc21 ... 3.41

Please turn your attention to the following entry.
**Q:** Given the entry "Nc1nc2c(nnn2[C@@H]2O[C@@H]3OCP(=O)(O)O[C@@H]4[C@@H](OCP(=O)(O)O[C@@H]2[C@@H]3O)O[C@@H](n2cnc3c(N)ncnc32)[C@@H]4O)c(=O)[nH]1" , what log10 of EC50 was observed with WT STING (Homo sapiens, UniProt Q86WV6, H232R)?
**A:** 1.43

----------
- Tested System: WT STING (Homo sapiens, UniProt Q86WV6, H232R)
- Method: Differential Scanning Fluorimetry with WT STING
- Type: binding
- Set-up: truncated human WT STING or AQ STING (amino acid residues 140-343); 8xHis (N, cleaved yes); SUMO (N, cleaved yes); made in house; host or cells: E. coli Rosetta-gami B (DE3)
- Condition: thermal shift vs STING apoprotein; 150 μM CDN; 0.1 mg/ml truncated human WT STING; SYPRO Orange; read-out: DSF ΔTm (° C.) WT STING
- Sequence (Q86WV6 140-343 H232R): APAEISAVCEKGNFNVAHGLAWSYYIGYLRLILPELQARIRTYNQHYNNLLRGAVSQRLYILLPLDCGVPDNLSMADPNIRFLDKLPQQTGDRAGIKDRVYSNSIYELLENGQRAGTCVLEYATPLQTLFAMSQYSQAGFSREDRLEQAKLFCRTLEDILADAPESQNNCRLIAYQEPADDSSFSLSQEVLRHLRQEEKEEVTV
Measurement Kind: ΔTm at 150 µM (°C)
One number for each entry, in °C.

Nc1nc2c(ncn2[C@@H]2O[C@@H]3OCP(=O)(O)O[C@H]4C[C@H](n5cnc6c(N)ncnc65)O[C@@H]4COP(=O)(O)O[C@@H]2[C@@H]3O)c(=O)[nH]1 ... 15.2
Cc1cn([C@@H]2O[C@@H]3COP(=O)(O)O[C@@H]4[C@@H](OCP(=O)(O)O[C@@H]2[C@@H]3O)O[C@@H](n2cnc3c(N)ncnc32)[C@@H]4O)c2nc(N)[nH]c(=O)c12 ... 0.1

Now for the compound whose ΔTm at 150 µM we want.
**Q:** Fill blank: measured ΔTm at 150 µM of the compound "Nc1ncc2ncn([C@@H]3O[C@@H]4COP(=O)(O)O[C@@H]5[C@H](O)[C@@H](OCP(=O)(O)O[C@H]4[C@H]3O)O[C@H]5n3cnc4c(=O)[nH]c(N)nc43)c2n1" is ____.
**A:** 3.9

----------
- Tested System: AQ STING (G230A-R293Q) (Homo sapiens, UniProt Q86WV6, G230A/H232R/R293Q)
- Construct: truncated human WT STING or AQ STING (amino acid residues 140-343); 8xHis (N, cleaved yes); SUMO (N, cleaved yes); made in house; host or cells: E. coli Rosetta-gami B (DE3)
- Method: Differential Scanning Fluorimetry with AQ STING
- Format: binding
- Condition: thermal shift vs STING apoprotein; 150 μM CDN; 0.1 mg/ml truncated human AQ STING; SYPRO Orange; read-out: DSF ΔTm (° C.) AQ STING
- Description: WT STING and AQ STING Proteins Purified PCR products were cleaved with restriction enzymes BamHI (cat. #R0136S, NEB, Ipswich, USA) and NotI (cat. #R0189S, NEB, Ipswich, USA) and cloned into the pSUMO vector linearized with the identical enzymes. […]
Assign ΔTm at 150 µM to each entry below.

Solved entries:
Nc1ncnc2c1ncn2[C@@H]1O[C@@H]2OCP(=O)(O)O[C@@H]3[C@H](O)[C@@H](OCP(=O)(O)O[C@H]2[C@H]1O)O[C@H]3n1cnc2c(N)ncnc21 [Compound 30] ... 6.4 °C
Nc1nc2c(ccn2[C@@H]2O[C@@H]3COP(=O)(O)O[C@@H]4[C@@H](OCP(=O)(O)O[C@@H]2[C@@H]3O)O[C@@H](n2cnc3c(N)ncnc32)[C@@H]4O)c(=O)[nH]1 [Compound 41] ... 9.1 °C
Nc1nc2c(nnn2[C@@H]2O[C@@H]3OCP(=O)(O)O[C@@H]4[C@@H](OCP(=O)(O)O[C@@H]2[C@@H]3O)O[C@@H](n2cnc3c(N)ncnc32)[C@@H]4O)c(=O)[nH]1 [Compound 61] ... 17.6 °C
Nc1ncnc2c1ncn2[C@@H]1O[C@@H]2COCP(=O)(O)O[C@@H]3[C@H](O)[C@@H](COP(=O)(O)O[C@H]2[C@H]1O)O[C@H]3n1cnc2c(N)ncnc21 [Compound 32] ... 5.3 °C

Pending compound:
**Q:** Any idea what its ΔTm at 150 µM is? The compound is Nc1nc2c(ncn2[C@@H]2C[C@@H]3COP(=O)(O)O[C@@H]4[C@@H](OCP(=O)(O)O[C@@H]2[C@@H]3O)O[C@@H](n2cnc3c(N)ncnc32)[C@@H]4O)c(=O)[nH]1 [Compound 36]
**A:** 14.2 °C
